# Tested on: Enterococcus faecium
# protocol description: Antibacterial activity against vancomycin-resistant Enterococcus faecium ATCC 51559 after 24 hrs by broth microdilution assay
# Format: functional
# condition label: ATCC 51559, 24 h
recorded endpoint: MIC

Consider the reported MIC for these molecules:
CCCCN(Cc1cccc2ccccc12)C(=O)[C@@H](N)CCCCN.O=C(O)C(F)(F)F.O=C(O)C(F)(F)F ... > 100 µg/mL
CCCCCCCCN(Cc1ccccc1)C(=O)[C@@H](N)CCCCN.O=C(O)C(F)(F)F.O=C(O)C(F)(F)F ... > 100 µg/mL

Now for another entry.
INPUT: Entry "CN[C@H](CC(C)C)C(=O)N[C@H]1C(=O)N[C@@H](CC(N)=O)C(=O)N[C@H]2C(=O)N[C@H]3C(=O)N[C@H](C(=O)N[C@H](C(=O)O)c4cc(O)cc(O)c4-c4cc3ccc4O)[C@H](O)c3ccc(c(Cl)c3)Oc3cc2cc(c3O[C@@H]2O[C@H](CO)[C@@H](O)[C@H](O)[C@H]2O[C@H]2C[C@](C)(N)[C@H](O)[C@H](C)O2)Oc2ccc(cc2Cl)[C@H]1O" , system Enterococcus faecium: what MIC was measured?
OUTPUT: > 100 µg/mL
